Test system: HL-60
measurement-notes: Antiproliferative activity against human HL-60 cells assessed as inhibition of cell growth incubated for 48 hrs by CCK-8 assay
Type: functional, cell-based
test-conditions: HL-60, 48 h
experimental-readout: IC50 (µM)

Reference set, count: 3
O=c1c2ccccc2c(=O)c2c1[se]c1c(=O)c3ccccc3c(=O)c12    2.91
COC1=C(c2ccccc2)C(=O)C(OC)=C(c2ccccc2)C1=O    5.91
O=c1c2ccccc2c(=O)c2c1oc1c(=O)c3ccccc3c(=O)c12    0.07

P = O=c1c(=O)c2c(oc3c(=O)c4ccccc4c(=O)c32)c2ccccc12
Q = O=C1C(O)=C(c2ccc(O)cc2)C(=O)C(O)=C1c1ccc(O)cc1
// query Sorting ascending by IC50, which comes first: P or Q ? Record your answer as the label of the chosen record.
// result P

----------
System: HL-60
measurement-notes: Antiproliferative activity against human HL-60 cells assessed as reduction in cell viability at 12.5 uM incubated for 48 hrs by CCK-8 assay relative to control
Type: functional
Listed here: items and their measured Activity.
Number in %, nothing else.

Reference set, count: 2
COc1ccc2c(=O)c3c(oc4c5ccc(OC)cc5c(=O)c(=O)c43)c(=O)c2c1    74
COc1ccc2c(=O)c3oc4c5cc(OC)ccc5c(=O)c(=O)c4c3c(=O)c2c1    11

// query Reported Activity for COc1ccc2c(=O)c3sc4c(=O)c5ccc(OC)cc5c(=O)c4c3c(=O)c2c1 : what is it?
// result 31.8

----------
Listed here: items and their measured pIC50.
Test system: HL-60
measurement-notes: Antiproliferative activity against human HL-60 cells assessed as inhibition of cell growth incubated for 48 hrs by CCK-8 assay
Assay type: functional, cell-based
test-conditions: HL-60, 48 h
pIC50: −log10 of the molar value.

Reference set, count: 5
COC1=C(c2ccc(OC)cc2)C(=O)C(OC)=C(c2ccc(OC)cc2)C1=O    < 4.60
O=C1C(O)=C(c2ccccc2)C(=O)C(O)=C1c1ccccc1    < 4.60
O=C1C(OC(=O)c2ccccc2)=C(c2ccc(O)cc2)C(=O)C(OC(=O)c2ccccc2)=C1c1ccc(O)cc1    < 4.60
COc1ccc(C2=C(O)C(=O)C(c3ccc(OC)cc3)=C(O)C2=O)cc1    < 4.60
COC1=C(c2ccc(O)cc2)C(=O)C(OC)=C(c2ccc(O)cc2)C1=O    < 4.60

Kindly review the next molecule as well.
// query Reported pIC50 for O=c1c2ccccc2c(=O)c2c1sc1c(=O)c3ccccc3c(=O)c12 : what is it?
// result 5.76
